Where do these numbers come from? They come from ChEMBL document CHEMBL4811308.

tested on: MDA-MB-231; assay: Induction of cell cycle arrest in human MDA-MB-231 cells assessed as accumulation at S phase at 6 uM incubated for 24 hrs by PI staining based flow cytometry analysis (reference value: 40.37 to 57.89 %); type: functional
outcomeMeasure: Activity
Quick note: unit goes after the number.

Examples from the recorded data:
compound	Activity
COc1ccc2c(c1)c(Cc1ccc(OC(C)CN(C)C)cc1)c(-c1cc(OC)c(OC)c(OC)c1)n2Cc1ccc(OC(C)CN(C)C)cc1 (centres undefined)	42.27%
COc1ccc2c(c1)c(Cc1ccc(OCCN3CCCCC3)cc1)c(-c1cc(OC)c(OC)c(OC)c1)n2Cc1ccc(OCCN2CCCCC2)cc1	29.41%
COc1ccc2c(c1)c(Cc1ccc(OCCN(C)C)cc1)c(-c1cc(OC)c(OC)c(OC)c1)n2Cc1ccc(OCCN(C)C)cc1	35.63%

Inquiry: # returns recorded Activity (system: MDA-MB-231) for CCN(CC)CCOc1ccc(Cc2c(-c3cc(OC)c(OC)c(OC)c3)n(Cc3ccc(OCCN(CC)CC)cc3)c3ccc(OC)cc23)cc1
Reply text: 36.56%

----------
system: MDA-MB-231; assay: Cytotoxicity against human MDA-MB-231 cells assessed as reduction in cell viability incubated for 24 hrs by MTT assay; assay type: functional, cell-based; conditions: MDA-MB-231, 24 h
We begin with a simple list: items and their reported pIC50.
Remember the convention: pIC50 equals -log10 of concentration in molar.

Examples from the recorded data:
compound	readoutNumber
COc1ccc2c(c1)cc(-c1cc(OC)c(OC)c(OC)c1)n2Cc1ccc(O)cc1	4.76
COc1ccc2c(c1)cc(-c1cc(OC)c(OC)c(OC)c1)n2Cc1ccc(OCCN(C)C)cc1	5.11
COc1ccc2c(c1)c(Cc1ccc(OCCN(C)C)cc1)c(-c1cc(OC)c(OC)c(OC)c1)n2Cc1ccc(OCCN(C)C)cc1	5.42
CC(=O)O[C@H]1C(=O)[C@@]2(C)[C@H]([C@H](OC(=O)c3ccccc3)[C@]3(O)C[C@H](OC(=O)[C@H](O)[C@@H](NC(=O)c4ccccc4)c4ccccc4)C(C)=C1C3(C)C)[C@]1(OC(C)=O)CO[C@@H]1C[C@@H]2O [PACLITAXEL]	5.80
COc1ccc2c(c1)c(Cc1ccc(OCCN3CCCC3)cc1)c(-c1cc(OC)c(OC)c(OC)c1)n2Cc1ccc(OCCN2CCCC2)cc1	5.02

Inquiry: Query: pIC50; subject: COc1ccc2c(c1)cc(-c1cc(OC)c(OC)c(OC)c1)n2Cc1ccc(OC(C)CN(C)C)cc1 (stereo not drawn)
Reply text: 4.97

Inquiry: Again, but for COc1ccc2c(c1)cc(-c1cc(OC)c(OC)c(OC)c1)n2Cc1ccc(OCCN2CCCC2)cc1
Reply text: 4.91

Inquiry: Again, but for CCN(CC)CCOc1ccc(Cn2c(-c3cc(OC)c(OC)c(OC)c3)cc3cc(OC)ccc32)cc1
Reply text: 4.88

----------
target: Estrogen receptor (Homo sapiens) (UniProt P03372); assay: Transactivation of ERalpha (unknown origin) transfected in human MDA-MB-231 cells at 1 uM by dual luciferase receptor assay; format: cell-based
Sequence (P03372 whole entry): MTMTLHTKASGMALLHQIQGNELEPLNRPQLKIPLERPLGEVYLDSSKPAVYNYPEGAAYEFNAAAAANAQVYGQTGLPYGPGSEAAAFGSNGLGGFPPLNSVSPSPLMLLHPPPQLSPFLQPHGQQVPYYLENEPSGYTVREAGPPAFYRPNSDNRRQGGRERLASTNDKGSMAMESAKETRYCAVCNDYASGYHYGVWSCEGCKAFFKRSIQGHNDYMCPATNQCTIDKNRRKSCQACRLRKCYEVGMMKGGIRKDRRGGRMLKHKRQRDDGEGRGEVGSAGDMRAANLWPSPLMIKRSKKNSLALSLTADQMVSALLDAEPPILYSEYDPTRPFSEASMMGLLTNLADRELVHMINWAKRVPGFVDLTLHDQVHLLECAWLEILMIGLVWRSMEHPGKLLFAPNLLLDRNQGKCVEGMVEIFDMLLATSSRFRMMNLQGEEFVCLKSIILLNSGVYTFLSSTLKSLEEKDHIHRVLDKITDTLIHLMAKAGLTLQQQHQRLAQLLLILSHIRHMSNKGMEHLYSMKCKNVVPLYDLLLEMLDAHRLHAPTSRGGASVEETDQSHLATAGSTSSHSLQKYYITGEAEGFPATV
Active and inactive are the calls of the source. The calls are words filed in the database; no cut-off is given here.
outcomeMeasure: Activity

molecule	result
COc1ccc2c(c1)c(Cc1ccc(OC(C)CN(C)C)cc1)c(-c1cc(OC)c(OC)c(OC)c1)n2Cc1ccc(OC(C)CN(C)C)cc1 (centres undefined)	inactive
COc1ccc2c(c1)c(Cc1ccc(OCCN(C)C)cc1)c(-c1cc(OC)c(OC)c(OC)c1)n2Cc1ccc(OCCN(C)C)cc1	inactive
CCN(CC)CCOc1ccc(Cc2c(-c3cc(OC)c(OC)c(OC)c3)n(Cc3ccc(OCCN(CC)CC)cc3)c3ccc(OC)cc23)cc1	inactive
COc1ccc2c(c1)c(Cc1ccc(OCCN3CCCCC3)cc1)c(-c1cc(OC)c(OC)c(OC)c1)n2Cc1ccc(OCCN2CCCCC2)cc1	inactive

----------
test system: HEK293; experiment: Cytotoxicity against human HEK293 cells assessed as reduction in cell viability incubated for 24 hrs by MTT assay; assay type: cell-based; settings: HEK293, 24 h
pIC50: −log10 of the molar value.
Decision: pIC50 compared against 5; not below it gives Y, below it gives N.

compound	system	groupLabel
CC(=O)O[C@H]1C(=O)[C@@]2(C)[C@H]([C@H](OC(=O)c3ccccc3)[C@]3(O)C[C@H](OC(=O)[C@H](O)[C@@H](NC(=O)c4ccccc4)c4ccccc4)C(C)=C1C3(C)C)[C@]1(OC(C)=O)CO[C@@H]1C[C@@H]2O	HEK293	Y
COc1ccc2c(c1)c(Cc1ccc(OC(C)CN(C)C)cc1)c(-c1cc(OC)c(OC)c(OC)c1)n2Cc1ccc(OC(C)CN(C)C)cc1 (stereo unspecified)	HEK293	N
COc1ccc2c(c1)c(Cc1ccc(OCCN(C)C)cc1)c(-c1cc(OC)c(OC)c(OC)c1)n2Cc1ccc(OCCN(C)C)cc1	HEK293	N

Inquiry: Evaluate COc1ccc2c(c1)c(Cc1ccc(OCCN3CCCCC3)cc1)c(-c1cc(OC)c(OC)c(OC)c1)n2Cc1ccc(OCCN2CCCCC2)cc1 : pIC50 at minimum 5?
Reply text: N

Inquiry: Again, but for CCN(CC)CCOc1ccc(Cc2c(-c3cc(OC)c(OC)c(OC)c3)n(Cc3ccc(OCCN(CC)CC)cc3)c3ccc(OC)cc23)cc1
Reply text: N

Inquiry: Again, but for CC/C(=C(\c1ccccc1)c1ccc(OCCN(C)C)cc1)c1ccccc1
Reply text: N

----------
experiment: Acute toxicity in Swiss albino mouse assessed as RBC level at 50 mg/kg, po administered once and observed for 7 days (reference value: 9.21 +/- 0.32 /mm3); assay type: organism-based; conditions: in vivo, 168 h, time 7 day
outcomeMeasure: Activity (million/mm3)
Respond with the bare value in million/mm3.

compound	Activity, million/mm3
COc1ccc2c(c1)c(Cc1ccc(OC(C)CN(C)C)cc1)c(-c1cc(OC)c(OC)c(OC)c1)n2Cc1ccc(OC(C)CN(C)C)cc1 (configuration not stated)	8.67

Next compound, Activity to be filled in.
Inquiry: Query: Activity; subject: COc1ccc2c(c1)c(Cc1ccc(OCCN(C)C)cc1)c(-c1cc(OC)c(OC)c(OC)c1)n2Cc1ccc(OCCN(C)C)cc1
Reply text: 8.72

----------
We begin with a simple list: items and their reported Activity.
assay: Acute toxicity in Swiss albino mouse assessed as RBC level at 5 mg/kg, po administered once and observed for 7 days (reference value: 9.21 +/- 0.32 /mm3); type: organism-based; settings: in vivo, 168 h, time 7 day
Respond with the bare value in million/mm3.

molecule	Activity [million/mm3]
COc1ccc2c(c1)c(Cc1ccc(OCCN(C)C)cc1)c(-c1cc(OC)c(OC)c(OC)c1)n2Cc1ccc(OCCN(C)C)cc1	9.67

Inquiry: Query: Activity; subject: COc1ccc2c(c1)c(Cc1ccc(OC(C)CN(C)C)cc1)c(-c1cc(OC)c(OC)c(OC)c1)n2Cc1ccc(OC(C)CN(C)C)cc1 (configuration not stated)
Reply text: 9.12

----------
assay: Acute toxicity in Swiss albino mouse assessed as WBC level at 300 mg/kg, po administered once and observed for 7 days (reference value: 8.55 +/- 2.71 /mm3); format: organism-based; details: in vivo, 168 h, time 7 day
We begin with a simple list: items and their reported Activity.
Quick note: unit goes after the number.

compound	Activity
COc1ccc2c(c1)c(Cc1ccc(OC(C)CN(C)C)cc1)c(-c1cc(OC)c(OC)c(OC)c1)n2Cc1ccc(OC(C)CN(C)C)cc1 (configuration not stated)	5.6 thousands/mm3

Inquiry: Query: Activity; subject: COc1ccc2c(c1)c(Cc1ccc(OCCN(C)C)cc1)c(-c1cc(OC)c(OC)c(OC)c1)n2Cc1ccc(OCCN(C)C)cc1
Reply text: 5.53 thousands/mm3

----------
We begin with a simple list: items and their reported Activity.
experiment: Acute toxicity in Swiss albino mouse assessed as WBC level at 50 mg/kg, po administered once and observed for 7 days (reference value: 8.55 +/- 2.71 /mm3); type: organism-based; conditions: in vivo, 168 h, time 7 day
Respond with the bare value in thousands/mm3.

molecule	readoutNumber
COc1ccc2c(c1)c(Cc1ccc(OC(C)CN(C)C)cc1)c(-c1cc(OC)c(OC)c(OC)c1)n2Cc1ccc(OC(C)CN(C)C)cc1 (configuration not stated)	7.5

Inquiry: Query: Activity; subject: COc1ccc2c(c1)c(Cc1ccc(OCCN(C)C)cc1)c(-c1cc(OC)c(OC)c(OC)c1)n2Cc1ccc(OCCN(C)C)cc1
Reply text: 4.86

----------
We begin with a simple list: items and their reported Activity.
assay: Acute toxicity in Swiss albino mouse assessed as WBC level at 5 mg/kg, po administered once and observed for 7 days (reference value: 8.55 +/- 2.71 /mm3); type: organism-based; details: in vivo, 168 h, time 7 day
Respond with the bare value in thousands/mm3.

compound	Activity / thousands/mm3
COc1ccc2c(c1)c(Cc1ccc(OC(C)CN(C)C)cc1)c(-c1cc(OC)c(OC)c(OC)c1)n2Cc1ccc(OC(C)CN(C)C)cc1 (configuration not stated)	6.23

Next compound, Activity to be filled in.
Inquiry: Query: Activity; subject: COc1ccc2c(c1)c(Cc1ccc(OCCN(C)C)cc1)c(-c1cc(OC)c(OC)c(OC)c1)n2Cc1ccc(OCCN(C)C)cc1
Reply text: 6.73
